Taken from patent US11339171B2.

Reported log10 IC50 values follow for various molecules
- Tested on: human osteosarcoma cell line SJSA-1
- Method notes: Inhibition of proliferation of human osteosarcoma cell line SJSA-1 (DAPI staining, In Cell Analyzer)
- Experimental parameters: Homo sapiens, SJSA-1, 72 h, read-out: IC50 (nM), inhibitory activity on proliferation of human osteosarcoma cell line SJSA-1, SJSA-1, incubated 72 h
For clarity, the numbers are log10 values of IC50 expressed in nM.

Consider the worked cases shown below.
> print(dat)
                           smiles.structure  observable  observed.measurement
1  COc1ccc(-c2nc3c(n2C(C)C)[C@]2(C(=O)Nc4cc(Cl)ccc42)N(c2cccc(Cl)c2)C3=O)c(OC)c1  log10 IC50                  3.50
2  COc1cc(N)ccc1-c1nc2c(n1C(C)C)[C@@]1(C(=O)Nc3cc(Cl)ccc31)N(c1cc(Cl)ccc1C)C2=O  log10 IC50                  0.77
3  COc1ncc(-c2nc3c(n2C(C)C)[C@@]2(C(=O)Nc4cc(Cl)ccc42)N(c2cccc(Cl)c2)C3=O)c(OC)n1  log10 IC50                  1.60
4  COc1cc(OC2CC2)ncc1-c1nc2c(n1C(C)C)[C@@]1(C(=O)Nc3cc(Cl)ccc31)N(c1cc(Cl)ccc1C)C2=O  log10 IC50                  1.89
5  COc1cc(N(C)C)ccc1-c1nc2c(n1C(C)C)[C@]1(C(=O)Nc3cc(Cl)ccc31)N(c1cc(Cl)ccc1C)C2=O  log10 IC50                  2.55
6  COc1nc(OC(C)C)ncc1-c1nc2c(n1C(C)C)[C@]1(C(=O)Nc3cc(Cl)ccc31)N(c1cc(Cl)ccc1C)C2=O  log10 IC50                  3.20

Fill in: log10 IC50 of `COc1cccc(F)c1-c1nc2c(n1C(C)C)[C@@]1(C(=O)Nc3cc(Cl)ccc31)N(c1cc(Cl)ccc1C)C2=O` is ___
1.07

Fill in: log10 IC50 of `COc1ccc(-c2nc3c(n2C(C)C)[C@]2(C(=O)Nc4cc(Cl)ccc42)N(c2cc(Cl)cnc2C)C3=O)c(OC)c1` is ___
2.13

Fill in: log10 IC50 of `COc1nc(N(C)C)ncc1-c1nc2c(n1C(C)C)[C@@]1(C(=O)Nc3cc(Cl)ccc31)N(c1cc(Cl)ccc1C)C2=O` is ___
0.87

Fill in: log10 IC50 of `COc1ccc(CC(=O)N(C)C)cc1-c1nc2c(n1C(C)C)[C@]1(C(=O)Nc3cc(Cl)ccc31)N(c1cc(Cl)ccc1C)C2=O` is ___
3.62

Fill in: log10 IC50 of `COc1ccc(C(N)=O)cc1-c1nc2c(n1C(C)C)[C@]1(C(=O)Nc3cc(Cl)ccc31)N(c1cc(Cl)ccc1C)C2=O` is ___
4.04

Fill in: log10 IC50 of `COc1cc(C)ccc1-c1nc2c(n1C(C)C)[C@]1(C(=O)Nc3cc(Cl)ccc31)N(c1cccc(Cl)c1)C2=O` is ___
3.91

Fill in: log10 IC50 of `COc1ccncc1-c1nc2c(n1C(C)C)[C@@]1(C(=O)Nc3cc(Cl)ccc31)N(c1cc(Cl)ccc1C)C2=O` is ___
1.14

###

- Tested on: human osteosarcoma cell line SJSA-1
- Method notes: Inhibition of proliferation of human osteosarcoma cell line SJSA-1 (DAPI staining, In Cell Analyzer)
- Experimental parameters: Homo sapiens, SJSA-1, 72 h, read-out: IC50 (nM), inhibitory activity on proliferation of human osteosarcoma cell line SJSA-1, SJSA-1, incubated 72 h
Observable: IC50 (nM)
Provide the reading as a plain figure in nM.

> print(dat)
                           smiles.structure  observable  observed.measurement
1  COc1ccncc1-c1nc2c(n1C(C)C)[C@@]1(C(=O)Nc3cc(Cl)ccc31)N(c1ccc(F)c(Cl)c1)C2=O        IC50                   263
2  COc1cc(C(C)C)ccc1-c1nc2c(n1C(C)C)[C@]1(C(=O)Nc3cc(Cl)ccc31)N(c1cc(Cl)ccc1C)C2=O        IC50                  8200
3  COc1cc(OC(F)F)ncc1-c1nc2c(n1C(C)C)[C@]1(C(=O)Nc3cc(Cl)ccc31)N(c1cc(Cl)ccc1C)C2=O        IC50                  5700
4  COc1ncc(-c2nc3c(n2C(C)C)[C@]2(C(=O)Nc4cc(Cl)ccc42)N(c2cc(C)ccc2C)C3=O)c(OC)n1        IC50                  3480

Fill in: IC50 of `COc1cc(OC(F)(F)F)ccc1-c1nc2c(n1C(C)C)[C@@]1(C(=O)Nc3cc(Cl)ccc31)N(c1cccc(Cl)c1)C2=O` is ___
364

Fill in: IC50 of `COc1cc(C(F)(F)F)ccc1-c1nc2c(n1C(C)C)[C@@]1(C(=O)Nc3cc(Cl)ccc31)N(c1cc(Cl)ccc1C)C2=O` is ___
40.2

Fill in: IC50 of `COc1ccc(-c2nc3c(n2C(C)C)[C@@]2(C(=O)Nc4cc(Cl)ccc42)N(c2cc(Cl)cn(C)c2=O)C3=O)c(OC)c1` is ___
1180

Fill in: IC50 of `COc1ccccc1-c1nc2c(n1C(C)C)[C@@]1(C(=O)Nc3cc(Cl)ccc31)N(c1cc(Cl)cn(C)c1=O)C2=O` is ___
564

Fill in: IC50 of `COc1ccc(-c2nc3c(n2C(C)C)[C@@]2(C(=O)Nc4cc(Cl)ccc42)N(c2cc(Cl)ccc2F)C3=O)c(OC)c1` is ___
16.9

Fill in: IC50 of `COc1cc(OC(C)C)ncc1-c1nc2c(n1C(C)C)[C@@]1(C(=O)Nc3cc(Cl)ccc31)N(c1cc(Cl)ccc1C)C2=O` is ___
2.29

###

- Subject of test: MDM2 (Homo sapiens)
- Construct: made in house
- Sequence (Q00987 whole entry): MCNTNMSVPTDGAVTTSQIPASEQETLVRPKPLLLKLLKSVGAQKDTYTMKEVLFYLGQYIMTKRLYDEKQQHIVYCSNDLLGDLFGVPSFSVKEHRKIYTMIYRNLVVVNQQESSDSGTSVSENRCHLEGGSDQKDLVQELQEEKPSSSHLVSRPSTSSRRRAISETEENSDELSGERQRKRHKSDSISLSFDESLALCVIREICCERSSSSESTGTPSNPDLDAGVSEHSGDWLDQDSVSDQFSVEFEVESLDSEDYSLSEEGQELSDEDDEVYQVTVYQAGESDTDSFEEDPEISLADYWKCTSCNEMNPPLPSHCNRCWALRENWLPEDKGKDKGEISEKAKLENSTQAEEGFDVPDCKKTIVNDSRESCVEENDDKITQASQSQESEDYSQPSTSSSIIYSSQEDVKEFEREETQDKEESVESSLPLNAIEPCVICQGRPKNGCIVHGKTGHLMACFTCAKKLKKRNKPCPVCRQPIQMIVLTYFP
- Method notes: Inhibition test of MDM2-P53 (GST-MDM2, Biotin-P53, Anti-GST-Tb, SA-XL665)
- Format: binding
- Experimental parameters: labels are Example numbers; the compounds with S-configuration are meant
Observable: inhibitory effect on MDM2 compared with positive control compound HDM201

Consider the worked cases shown below.
> print(dat)
                                   compound      subject.of.test  observed.measurement
1  COc1ncc(-c2nc3c(n2C(C)C)C2(C(=O)Nc4cc(Cl)ccc42)N(c2cc(Cl)ccc2C)C3=O)c(OC)n1 (stereo not drawn)  MDM2 (Homo sapiens)                better
2  CNC(=O)c1ccc(OC)c(-c2nc3c(n2C(C)C)C2(C(=O)Nc4cc(Cl)ccc42)N(c2cc(Cl)ccc2C)C3=O)c1 (stereo not drawn)  MDM2 (Homo sapiens)                better
3  COc1cc(C)ncc1-c1nc2c(n1C(C)C)C1(C(=O)Nc3cc(Cl)ccc31)N(c1cc(Cl)ccc1C)C2=O (stereo not drawn)  MDM2 (Homo sapiens)                better
4  COc1ccc(C(N)=O)cc1-c1nc2c(n1C(C)C)C1(C(=O)Nc3cc(Cl)ccc31)N(c1cc(Cl)ccc1C)C2=O (stereo not drawn)  MDM2 (Homo sapiens)                better
5  COc1cc(N)ccc1-c1nc2c(n1C(C)C)C1(C(=O)Nc3cc(Cl)ccc31)N(c1cc(F)cc(Cl)c1)C2=O (stereo not drawn)  MDM2 (Homo sapiens)                better

Fill in: inhibitory effect on MDM2 compared with positive control compound HDM201 of COc1cc(OC(C)C)ncc1-c1nc2c(n1C(C)C)C1(C(=O)Nc3cc(Cl)ccc31)N(c1cccc(Cl)c1)C2=O (stereo not drawn) is ___
better

Fill in: inhibitory effect on MDM2 compared with positive control compound HDM201 of COc1cc(N(C)C)ncc1-c1nc2c(n1C(C)C)C1(C(=O)Nc3cc(Cl)ccc31)N(c1cc(Cl)ccc1C)C2=O (stereo not drawn) is ___
better

Fill in: inhibitory effect on MDM2 compared with positive control compound HDM201 of COc1cc(C(F)(F)F)ncc1-c1nc2c(n1C(C)C)C1(C(=O)Nc3cc(Cl)ccc31)N(c1cccc(Cl)c1)C2=O (stereo not drawn) is ___
better

Fill in: inhibitory effect on MDM2 compared with positive control compound HDM201 of COc1ccc(-c2nc3c(n2C(C)C)C2(C(=O)Nc4cc(Cl)ccc42)N(c2cc(Cl)cnc2C)C3=O)c(OC)c1 (stereo not drawn) is ___
better

###

Reported clearance values follow for various compounds
- Method notes: Pharmacokinetics in ICR mice after intravenous and intragastric administration
- Type: in vivo
- Experimental parameters: male, ICR, mouse, plasma, iv, 2 mg/kg, ICR mice, IV 2 mg/kg, mean of 3 animals
Provide the reading as a plain figure in mL/min/kg.

Consider the worked cases shown below.
> print(dat)
                           smiles.structure  observed.measurement
1  COc1cc(OC(C)C)ncc1-c1nc2c(n1C(C)C)[C@@]1(C(=O)Nc3cc(Cl)ccc31)N(c1cc(Cl)cnc1C)C2=O                  2.87
2  COc1nc(C2CC2)ncc1-c1nc2c(n1C(C)C)[C@@]1(C(=O)Nc3cc(Cl)ccc31)N(c1cc(Cl)ccc1C)C2=O                  1.21

Fill in: clearance of `CCOc1ncc(-c2nc3c(n2C(C)C)[C@@]2(C(=O)Nc4cc(Cl)ccc42)N(c2cc(Cl)cnc2C)C3=O)c(OC)n1` is ___
5.31

Fill in: clearance of `CCOc1cc(OC)c(-c2nc3c(n2C(C)C)[C@@]2(C(=O)Nc4cc(Cl)ccc42)N(c2cc(Cl)ccc2C)C3=O)cn1` is ___
2.49

Fill in: clearance of `COc1cc(OC)c(-c2nc3c(n2C(C)C)[C@@]2(C(=O)Nc4cc(Cl)ccc42)N(c2cc(Cl)cnc2C)C3=O)cn1` is ___
22

Fill in: clearance of `COc1ncc(-c2nc3c(n2C(C)C)[C@@]2(C(=O)Nc4cc(Cl)ccc42)N(c2cc(Cl)ccc2F)C3=O)c(OC)n1` is ___
11
